Molecular target: Serine/threonine-protein kinase B-raf (Homo sapiens, UniProt P15056)
Sequence (P15056 whole entry): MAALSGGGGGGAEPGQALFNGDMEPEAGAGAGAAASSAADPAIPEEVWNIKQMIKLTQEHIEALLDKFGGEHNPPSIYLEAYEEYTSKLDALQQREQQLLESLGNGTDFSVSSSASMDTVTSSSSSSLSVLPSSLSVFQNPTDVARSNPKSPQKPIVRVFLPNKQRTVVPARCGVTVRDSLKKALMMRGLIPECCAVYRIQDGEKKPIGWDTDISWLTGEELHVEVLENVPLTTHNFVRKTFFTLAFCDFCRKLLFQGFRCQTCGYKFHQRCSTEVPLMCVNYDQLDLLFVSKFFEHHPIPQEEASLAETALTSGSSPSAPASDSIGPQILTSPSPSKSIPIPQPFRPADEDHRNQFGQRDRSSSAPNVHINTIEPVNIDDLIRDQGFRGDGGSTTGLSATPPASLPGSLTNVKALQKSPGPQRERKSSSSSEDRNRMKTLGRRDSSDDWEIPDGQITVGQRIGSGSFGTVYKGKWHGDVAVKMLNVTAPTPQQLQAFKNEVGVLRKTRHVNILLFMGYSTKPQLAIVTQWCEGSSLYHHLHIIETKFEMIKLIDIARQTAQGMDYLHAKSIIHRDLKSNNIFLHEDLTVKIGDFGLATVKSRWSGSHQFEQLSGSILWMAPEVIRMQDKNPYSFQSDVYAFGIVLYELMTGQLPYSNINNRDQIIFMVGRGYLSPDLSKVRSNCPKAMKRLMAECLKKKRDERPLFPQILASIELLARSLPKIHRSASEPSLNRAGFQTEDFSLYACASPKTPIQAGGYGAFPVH
test readout: IC50 (nM)
Number only, in nM; omit the unit.

Consider the worked cases shown below.
CN1C[C@@H]2C[C@H]1CN2c1ccc(-c2ccnc3c(-c4cccc5[nH]ncc45)c(-c4ccncc4)nn23)c(F)c1 ... 0.23
CN1C[C@@H]2C[C@H]1CN2c1cc(F)c(-c2ccnc3c(-c4ccc(F)c5[nH]ncc45)c(-c4ccncc4)nn23)c(F)c1 ... 0.11
CN1C[C@@H]2C[C@H]1CN2c1ccc(-c2ccnc3c(-c4cccc5[nH]ncc45)c(-c4ccncc4)nn23)c(F)c1F ... 0.61
CN1C[C@@H]2CC[C@H]1CN2c1ccc(-c2ccnc3c(-c4cccc5[nH]ncc45)c(-c4ccncc4)nn23)c(F)c1 ... 0.41
CN1C[C@@H]2C[C@H]1CN2c1ccc(-c2ccnc3c(-c4cccc5[nH]ncc45)c(-c4ccncc4)nn23)cc1 ... 1.2

What value of IC50 has been reported for the following compound? CN1C[C@@H]2C[C@H]1CN2c1cc(F)c(-c2ccnc3c(-c4cccc5[nH]ncc45)c(-c4ccncc4)nn23)cc1F
0.38

Another: CN1C[C@@H]2C[C@H]1CN2c1cc(F)c(-c2ccnc3c(-c4cccc5[nH]ncc45)c(-c4ccncc4)nn23)c(F)c1
0.16

Another: CN1C[C@@H]2C[C@H]1CN2c1c(F)c(F)c(-c2ccnc3c(-c4cccc5[nH]ncc45)c(-c4ccncc4)nn23)c(F)c1F
0.35
